Source listed as patent US12662465B2.

Task for the reader: assign each of the following compounds its reported pIC50.
# assayed target: intracellular phosphorylation of EGFR (Tyr1068) in PC-9 cells (Ex19Del) (Homo sapiens, UniProt P00533, DEL746-750)
# Sequence (P00533 with tags, fused parts or gaps DEL746-750): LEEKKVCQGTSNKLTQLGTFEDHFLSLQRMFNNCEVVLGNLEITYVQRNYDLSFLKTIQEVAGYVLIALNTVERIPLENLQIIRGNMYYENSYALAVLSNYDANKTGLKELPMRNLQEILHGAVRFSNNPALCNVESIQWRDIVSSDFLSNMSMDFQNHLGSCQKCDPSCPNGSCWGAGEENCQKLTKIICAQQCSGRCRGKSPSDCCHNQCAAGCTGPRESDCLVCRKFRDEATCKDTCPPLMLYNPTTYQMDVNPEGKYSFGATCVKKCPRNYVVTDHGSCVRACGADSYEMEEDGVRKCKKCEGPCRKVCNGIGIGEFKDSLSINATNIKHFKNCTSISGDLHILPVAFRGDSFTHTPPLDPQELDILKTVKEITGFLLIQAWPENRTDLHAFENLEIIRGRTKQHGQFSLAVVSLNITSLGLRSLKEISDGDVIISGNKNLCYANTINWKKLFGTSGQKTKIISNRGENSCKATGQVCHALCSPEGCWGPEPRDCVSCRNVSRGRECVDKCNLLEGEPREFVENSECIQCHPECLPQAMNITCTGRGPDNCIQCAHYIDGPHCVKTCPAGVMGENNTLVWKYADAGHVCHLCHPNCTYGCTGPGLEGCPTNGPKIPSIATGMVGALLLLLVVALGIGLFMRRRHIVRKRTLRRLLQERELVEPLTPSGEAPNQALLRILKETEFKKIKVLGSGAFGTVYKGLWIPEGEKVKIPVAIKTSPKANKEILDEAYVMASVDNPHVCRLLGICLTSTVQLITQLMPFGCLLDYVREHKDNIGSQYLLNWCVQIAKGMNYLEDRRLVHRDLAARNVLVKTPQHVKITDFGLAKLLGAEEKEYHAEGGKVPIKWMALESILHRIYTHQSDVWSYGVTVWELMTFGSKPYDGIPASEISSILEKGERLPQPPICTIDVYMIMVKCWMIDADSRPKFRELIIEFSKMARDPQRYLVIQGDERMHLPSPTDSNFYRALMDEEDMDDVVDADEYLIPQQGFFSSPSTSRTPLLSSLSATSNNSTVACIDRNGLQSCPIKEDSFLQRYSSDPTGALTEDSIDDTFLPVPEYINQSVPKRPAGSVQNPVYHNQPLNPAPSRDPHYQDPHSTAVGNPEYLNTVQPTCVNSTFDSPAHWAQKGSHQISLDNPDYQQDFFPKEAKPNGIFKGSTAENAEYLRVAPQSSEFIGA
# test protocol: PC-9 pEGFR AlphaLISA assay
# run conditions: 4 hours compound incubation, read-out: Ext pEGFR_PC-9 Ex19Del IC50
pIC50: −log10 of the molar value.

Ask: Any idea what its pIC50 is? The compound is C[C@H](Oc1cc(-c2cnn(C)c2)cc2ncnc(Nc3ccc4ncccc4c3F)c12)[C@@H](C)O (single isomer, unassigned)
Reply: ≥ 8.00

Ask: Which pIC50 value belongs to COCCn1cc(-c2cc(O[C@H](C)C3COC3)c3c(Nc4ccc5ncccc5c4F)ncnc3c2)cn1 ?
Reply: ≥ 8.00

Ask: Entry C[C@H](CN(C)C)Oc1cc(-c2cnn(C)c2)cc2ncnc(Nc3ccc4cccnc4c3)c12 : reported pIC50 = ?
Reply: ≥ 8.00

Ask: Consider the compound shown here: C[C@H](CN(C)C)Oc1cc(-c2cnn(C)c2)cc2nc[n+]([O-])c(Nc3ccc4ncccc4c3F)c12 (single isomer, unassigned) What is its recorded pIC50?
Reply: < 7.30

Ask: What does the record list as pIC50 for C[C@H](CN(C)C)Oc1cc(N2CC3(CCS3(=O)=O)C2)cc2ncnc(Nc3ccc4ncccc4c3F)c12 ?
Reply: ≥ 8.00

Ask: Quick one: pIC50 for C[C@H](Oc1cc(-c2cnn(C)c2)cc2ncnc(Nc3ccc4ncccc4c3F)c12)C(=O)N(C)C (single isomer, unassigned) ?
Reply: ≥ 8.00

Ask: Entry C[C@H](CN(C)C)Oc1cc(-c2cnn(C)c2)cc2c1c(Nc1ccc3ncccc3c1F)nc[n+]2[O-] (single isomer, unassigned) : reported pIC50 = ?
Reply: 7.30 to 8.00

Ask: Recorded pIC50 for C[C@H](CN(C)C)Oc1cc(-c2cnn(C)c2)cc2ncnc(Nc3cnc4ccccc4c3F)c12 , please?
Reply: < 7.30

Ask: Can you look up the measured pIC50 of CN(C)C[C@H](Oc1cc(-c2cnn(C)c2)cc2ncnc(Nc3ccc4ncccc4c3F)c12)C(F)F (single isomer, unassigned) for me?
Reply: ≥ 8.00

Ask: Item under review: C[C@H](CN(C)C)Oc1cc(-c2cnn(C)c2)cc2ncnc(Nc3cnc4ccccc4c3)c12 . Reported pIC50?
Reply: ≥ 8.00

Ask: // lookup pIC50 for C[C@H](CN(C)C)Oc1cc(N2CCC3(COC3)C2)cc2ncnc(Nc3ccc4ncccc4c3F)c12
Reply: 7.30 to 8.00

Ask: Item under review: CC[C@H](Oc1cc(-c2cnn(C)c2)cc2ncnc(Nc3ccc4ncccc4c3F)c12)C1COC1 (single isomer, unassigned) . Reported pIC50?
Reply: ≥ 8.00

Ask: What value of pIC50 has been reported for the following compound? C[C@H](O)[C@H](C)Oc1cc(-c2cnn(C)c2)cc2ncnc(Nc3ccc4ncccc4c3F)c12 (single isomer, unassigned)
Reply: ≥ 8.00

Ask: Request the reported pIC50 associated with C[C@H](CN(C)C)Oc1cc(-c2cnn(C)c2)cc2ncnc(Nc3ccc4nccnc4c3F)c12
Reply: < 7.30

Ask: Which pIC50 reading was recorded for the compound C[C@H](CN(C)C)Oc1cc(N(C)C)cc2ncnc(Nc3ccc4ncccc4c3F)c12 ?
Reply: ≥ 8.00

Ask: Entry C[C@@H](CN(C)C)Oc1cc(-c2cnn(C)c2)cc2ncnc(Nc3ccc4ncccc4c3)c12 (single isomer, unassigned) : reported pIC50 = ?
Reply: ≥ 8.00

Ask: Reported pIC50, compound C[C@@H](Oc1cc(-c2cnn(CC(C)(C)O)c2)cc2ncnc(Nc3ccc4ncccc4c3F)c12)C1COC1 : ____
Reply: ≥ 8.00

Ask: I'd like to know its pIC50. The compound in question is C[C@H](CN(C)C)Oc1cc(N2CC(C)(O)C2)cc2ncnc(Nc3ccc4ncccc4c3F)c12
Reply: 7.30 to 8.00

Ask: Please give the measured pIC50 for this compound: C[C@@H](Oc1cc(-c2cnn(C)c2)cc2ncnc(Nc3c(F)cc4ncccc4c3F)c12)C1COC1
Reply: ≥ 8.00

Ask: Which value of pIC50 has been reported for C[C@H](CN(C)C)Oc1cc(N2CC3(CNC3)C2)cc2ncnc(Nc3ccc4ncccc4c3F)c12 in the records?
Reply: 7.30 to 8.00

Ask: Any idea what pIC50 was measured for C[C@H](CN(C)C)Oc1cc(N2CCOC(C(F)F)C2)cc2ncnc(Nc3ccc4ncccc4c3F)c12 (mixture of isomers) ?
Reply: ≥ 8.00

Ask: Name the recorded pIC50 for C[C@H](CN(C)C)Oc1cc(-c2cnn(C)c2)cc2ncnc(Nc3cnc4ncccc4c3)c12 .
Reply: ≥ 8.00

Ask: Entry C[C@H](CN(C)C)Oc1cc(N2CCC(C)(O)CC2)cc2ncnc(Nc3ccc4ncccc4c3F)c12 has what pIC50?
Reply: 7.30 to 8.00

Ask: Given the compound C[C@H](CN(C)C)Oc1cc(N2CCCC2=O)cc2ncnc(Nc3ccc4ncccc4c3F)c12 , what is its reported pIC50?
Reply: ≥ 8.00

Ask: Would you kindly share the measured pIC50 for C[C@@H](Oc1cc(N2CC[C@H](C(C)(C)O)C2)cc2ncnc(Nc3ccc4ncccc4c3F)c12)C1COC1 ?
Reply: ≥ 8.00

Ask: // lookup pIC50 for CCNC[C@@H](C)Oc1cc(-c2cnn(C)c2)cc2ncnc(Nc3ccc4ncccc4c3F)c12
Reply: < 7.30

Ask: I'd like to know its pIC50. The compound in question is C[C@H](CN(C)C1CC1)Oc1cc(-c2cnn(C)c2)cc2ncnc(Nc3ccc4ncccc4c3F)c12
Reply: ≥ 8.00

Ask: Please report the recorded pIC50 for CC(CN(C)C)Oc1cc(N2CC3CC(C2)O3)cc2ncnc(Nc3ccc4ncccc4c3)c12 (racemic) [Example 66] .
Reply: ≥ 8.00
